Test system: NCI-H460
Test: Cytotoxicity against human NCI-H460 cells after 48 hrs by MTT assay
Conditions: NCI-H460, 48 h
Rule: IC50 below 10 µM gives Criterion met. Equal to or above 10 µM gives Criterion not met.

CHEMICAL_SMILES: CC[C@H](C)[C@H](NC(=S)Nc1cccc([N+](=O)[O-])c1)C(=O)N[C@H](Cc1ccccc1)C(=O)Nc1ccc(Cl)c(Cl)c1
ANSWER_LABEL: Criterion not met
--
CHEMICAL_SMILES: CC[C@H](C)[C@H](NC(=S)Nc1cccc([N+](=O)[O-])c1)C(=O)N[C@H](Cc1ccccc1)C(=O)Nc1cccc(F)c1
ANSWER_LABEL: Criterion not met
--
CHEMICAL_SMILES: CC[C@H](C)[C@H](NC(=S)Nc1ccc(C(F)(F)F)cc1)C(=O)N[C@H](Cc1ccccc1)C(=O)Nc1cccc(Br)c1
ANSWER_LABEL: Criterion met
--
CHEMICAL_SMILES: CC[C@H](C)[C@H](NC(=S)Nc1cccc([N+](=O)[O-])c1)C(=O)N[C@H](Cc1ccccc1)C(=O)Nc1cccc(C(F)(F)F)c1
ANSWER_LABEL: Criterion met
--
CHEMICAL_SMILES: CC[C@H](C)[C@H](/N=C(/Nc1cccc(C(F)(F)F)c1)SC)C(=O)N[C@H](Cc1ccccc1)C(=O)Nc1cccc(C(F)(F)F)c1
ANSWER_LABEL: Criterion not met
--
CHEMICAL_SMILES: CC[C@H](C)[C@H](NC(=S)Nc1cccc([N+](=O)[O-])c1)C(=O)N[C@H](Cc1ccccc1)C(=O)Nc1cccc(Cl)c1
ANSWER_LABEL: Criterion not met
--
CHEMICAL_SMILES: CC[C@H](C)[C@H](NC(=S)Nc1cccc(C(F)(F)F)c1)C(=O)N[C@H](Cc1ccccc1)C(=O)Nc1ccc(Cl)c(Cl)c1
ANSWER_LABEL: Criterion met
--
CHEMICAL_SMILES: CC[C@H](C)[C@H](NC(=S)Nc1cccc([N+](=O)[O-])c1)C(=O)N[C@H](Cc1ccccc1)C(=O)Nc1ccc(Br)cc1
ANSWER_LABEL: Criterion not met
--
CHEMICAL_SMILES: CC[C@H](C)[C@H](NC(=S)Nc1cccc([N+](=O)[O-])c1)C(=O)N[C@H](Cc1ccccc1)C(=O)Nc1ccc(F)cc1
ANSWER_LABEL: Criterion not met

These entries and their values trace back to ChEMBL document CHEMBL4002562.
